meta.source: patent US20090181986A1

- Measured On: wild-type human cardiac sodium channel, hNav1.5 (Homo sapiens)
- Sequence (Q14524 whole entry): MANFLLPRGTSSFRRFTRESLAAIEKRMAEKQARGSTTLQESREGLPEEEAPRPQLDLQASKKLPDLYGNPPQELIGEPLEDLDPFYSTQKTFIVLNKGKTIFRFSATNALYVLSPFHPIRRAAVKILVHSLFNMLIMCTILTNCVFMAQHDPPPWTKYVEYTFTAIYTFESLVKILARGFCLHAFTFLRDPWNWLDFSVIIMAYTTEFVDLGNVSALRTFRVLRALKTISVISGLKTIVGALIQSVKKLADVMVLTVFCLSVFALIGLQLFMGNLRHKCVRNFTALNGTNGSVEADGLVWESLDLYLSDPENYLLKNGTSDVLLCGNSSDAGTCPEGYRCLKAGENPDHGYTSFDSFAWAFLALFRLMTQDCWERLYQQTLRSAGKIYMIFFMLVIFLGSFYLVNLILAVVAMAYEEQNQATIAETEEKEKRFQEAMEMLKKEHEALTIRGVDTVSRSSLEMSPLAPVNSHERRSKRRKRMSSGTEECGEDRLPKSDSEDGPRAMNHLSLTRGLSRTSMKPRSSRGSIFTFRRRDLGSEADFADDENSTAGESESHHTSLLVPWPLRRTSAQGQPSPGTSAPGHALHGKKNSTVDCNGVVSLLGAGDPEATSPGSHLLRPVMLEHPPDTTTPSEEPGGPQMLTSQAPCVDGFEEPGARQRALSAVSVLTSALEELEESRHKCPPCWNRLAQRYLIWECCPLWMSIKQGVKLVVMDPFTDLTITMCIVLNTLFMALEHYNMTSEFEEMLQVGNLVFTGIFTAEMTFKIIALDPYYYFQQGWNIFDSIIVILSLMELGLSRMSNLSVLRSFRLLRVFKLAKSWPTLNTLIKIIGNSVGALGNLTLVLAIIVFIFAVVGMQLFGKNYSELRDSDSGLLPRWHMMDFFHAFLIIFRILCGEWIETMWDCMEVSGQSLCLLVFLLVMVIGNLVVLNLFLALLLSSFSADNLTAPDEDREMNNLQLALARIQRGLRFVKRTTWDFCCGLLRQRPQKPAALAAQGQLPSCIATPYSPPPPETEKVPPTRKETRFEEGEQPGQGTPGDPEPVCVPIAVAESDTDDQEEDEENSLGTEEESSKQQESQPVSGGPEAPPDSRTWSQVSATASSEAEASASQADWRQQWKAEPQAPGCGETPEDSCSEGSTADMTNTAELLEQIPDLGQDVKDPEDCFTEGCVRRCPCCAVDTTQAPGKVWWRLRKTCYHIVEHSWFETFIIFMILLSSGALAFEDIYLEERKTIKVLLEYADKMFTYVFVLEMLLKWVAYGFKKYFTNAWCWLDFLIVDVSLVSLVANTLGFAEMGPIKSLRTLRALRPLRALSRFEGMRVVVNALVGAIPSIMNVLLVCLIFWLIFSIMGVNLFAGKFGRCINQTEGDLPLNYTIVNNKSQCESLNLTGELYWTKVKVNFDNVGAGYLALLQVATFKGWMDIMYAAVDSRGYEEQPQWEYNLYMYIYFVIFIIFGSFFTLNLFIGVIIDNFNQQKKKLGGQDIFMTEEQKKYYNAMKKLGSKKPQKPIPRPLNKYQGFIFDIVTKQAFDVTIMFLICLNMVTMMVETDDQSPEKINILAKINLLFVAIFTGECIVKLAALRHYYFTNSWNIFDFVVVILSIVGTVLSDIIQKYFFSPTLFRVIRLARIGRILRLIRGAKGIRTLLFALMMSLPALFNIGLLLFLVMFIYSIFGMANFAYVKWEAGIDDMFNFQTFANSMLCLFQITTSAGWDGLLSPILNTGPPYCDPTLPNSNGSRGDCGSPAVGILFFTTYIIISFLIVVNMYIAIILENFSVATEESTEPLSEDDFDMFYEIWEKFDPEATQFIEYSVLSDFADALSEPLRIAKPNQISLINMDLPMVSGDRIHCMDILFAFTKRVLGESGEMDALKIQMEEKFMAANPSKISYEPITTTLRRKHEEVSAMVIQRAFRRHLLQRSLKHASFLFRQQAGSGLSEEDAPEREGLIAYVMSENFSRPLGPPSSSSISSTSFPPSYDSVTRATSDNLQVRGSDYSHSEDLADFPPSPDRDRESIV
- Protocol Text: Late INa screening assay (PatchXpress whole cell patch clamp, late current generated with Tefluthrin or ATX II)
- Type: cell-based
- Condition Context: test compound at 10 μM; read-out: Late INa % blk
Each entry below carries its reported inhibition at 10 µM.
Value Type: inhibition at 10 µM (%)

COC(=O)C1=C(C)Nc2nnnn2C1c1ccccc1 (stereo not shown)
6
CC1=C(C(=O)OCc2ccccc2Br)C(c2c(Cl)cccc2Cl)n2nnnc2N1Cc1nnn[nH]1 (stereo not shown)
35.6
COC(=O)C1=C(C)N(Cc2nnn[nH]2)c2nnnn2C1c1sc2ccccc2c1Br (stereo not shown)
18.2
CC1=C(C(=O)OCc2ccc(C(F)(F)F)cc2)C(c2cccc3ccccc23)n2nnnc2N1 (stereo not shown)
16.9
CC1=C(C(=O)O[C@@H](C)c2ccccc2)C(c2cc3ccccc3s2)n2nnnc2N1 (stereo partly shown)
71
CC1=C(C(=O)OCc2ccccc2Br)C(c2c(Cl)cccc2Cl)n2nnnc2N1 (stereo not shown)
51.2
CC1=C(C(=O)N2CCC(c3ccc(C(N)=O)cc3)CC2)C(c2cccc3ccccc23)C2=C(CCCC2=O)N1 (stereo not shown)
8.6
CCOC(=O)C1=C(C)NC(C)=C(C(=O)OCC)C1c1ccc2c(c1)OCCO2
76.5
CC1=C(C(=O)OC(C)C)C(c2c[nH]nc2-c2ccc(F)cc2)C(C(=O)OC(C)C)=C(C)N1
34.1
COC(=O)c1ccc(C2CCN(C(=O)C3=C(C)NC4=C(C(=O)CCC4)C3c3cccc4ccccc34)CC2)cc1 (stereo not shown)
4.2
CC1=C(C(=O)OCc2ccccc2)C(c2ccccc2-c2ccc(NS(C)(=O)=O)cc2)n2nnnc2N1 (stereo not shown)
88.3
CC1=C(C(=O)Nc2c(C)cccc2C)C(c2ccsc2)C2=C(CCCC2=O)N1 (stereo not shown)
-4.7
CC1=C(C(=O)OCCc2nnn[nH]2)C(c2cccc3ccccc23)n2nnnc2N1 (stereo not shown)
0.3

###

- Measured On: UniProt Q12809
- Protocol Text: hERG screening assay (PatchXpress patch clamp, CHO cells)
- Condition Context: 10 μM test cmpd
Answer F if hERG Patch Clamp hERG % blk (10 μM test cmpd) is under 30%, and T if it is 30% or more.

CC1=C(C(=O)OCc2ccccc2)[C@@H](c2ccccc2-c2ccc(Cl)s2)n2nnnc2N1 [PT-237]
F
CC1=C(C(=O)OCc2ccccc2)C(c2ccccc2-c2ccc(C(=O)O)cc2)n2nnnc2N1 (stereo not drawn) [PT-254]
F
CCOC(=O)C1=C(C)NC2=C(C(=O)CCC2)C1c1ccnc2ccccc12 (stereo not drawn) [PT-190]
T
CC1=C(C(=O)OCc2ccccc2)C(c2ccccc2-c2ccc(NS(C)(=O)=O)cc2)n2nnnc2N1 (stereo not drawn) [PT-530]
T
CC1=C(C(=O)OC(C)C)C(c2ccc(Br)s2)C(C(=O)OC(C)C)=C(C)N1 [PT-124]
T
COC(=O)C1=C(C)Nc2nnnn2C1c1cccc2ccccc12 (stereo not drawn) [PT-512]
F
CCOC(=O)C1=C(CC)NC(CC)=C(C(=O)OCC)C1c1ccc(Br)s1 [PT-181]
T
CCOC(=O)C1=C(C)Nc2nnnn2C1c1ccccc1-c1cccc(-c2nnn[nH]2)c1 (stereo not drawn) [PT-493]
F
CC1=C(C(=O)OCc2ccccc2)C(c2ccccc2-c2ccc(NS(C)(=O)=O)cc2)c2cn[nH]c2N1 (stereo not drawn) [PT-366]
T
CC1=C(C(=O)OC(C)C)C(c2cccc3ccccc23)n2nnnc2N1 (stereo not drawn) [PT-021]
T
CC1=C(C(=O)OCc2ccccc2)C(c2cccs2)n2nnnc2N1 (stereo not drawn) [PT-040]
F
CCOC(=O)C1=C(C)NC(C)=C(C(=O)OCC)C1c1ccc2ccccc2c1 [PT-107]
T
N#CC1=C(N)OC2=C(C(=O)CC(c3ccccc3)C2)C1c1cccs1 (stereo not drawn) [PT-101]
T
CC1=C(C(=O)OCc2ccc(Cn3cccn3)cc2)C(c2cccs2)n2nnnc2N1 (stereo not drawn) [PT-280]
T
CCOC(=O)C1=C(C)NC(C)=C(C(=O)OCC)C1c1cc2ccccc2s1 [PT-114]
T
N#CC1=C(N)OC2=C(C(=O)CCC2)C1c1ccc(Br)cc1 (stereo not drawn) [PT-096]
T
CC1=C(C(=O)OCc2ccccc2)C(c2ccc3ccccc3c2)C2=C(CCCC2=O)N1 (stereo not drawn) [PT-320]
F
COc1ccc(C2C(C(=O)OCc3ccccc3)=C(C)Nc3nnnn32)c(C#N)c1 (stereo not drawn) [PT-389]
T
CCOC(=O)C1=C(C)NC(C)=C(C(=O)OCC)C1c1cc2ccccc2o1 [PT-122]
T
CCOC(=O)C1=C(C)NC(C)=C(C(=O)OCC)C1c1ccc2c(c1)OCCO2 [PT-109]
T
CC1=C(C(=O)OCc2ccccc2)C(c2ccccc2-c2ccccc2)n2nnnc2N1 (stereo not drawn) [PT-025]
T
CCOC(=O)C1=C(C(C)C)NC(C(C)C)=C(C(=O)OCC)C1c1ccc(Br)s1 [PT-183]
F
C=CCOC(=O)C1=C(C)Nc2nnnn2C1c1cccc2ccccc12 (stereo not drawn) [PT-319]
T
CC1=C(C(=O)OCc2ccc(Cn3cccn3)cc2)C(c2cccc3ccccc23)n2nnnc2N1 (stereo not drawn) [PT-279]
T
CCOC(=O)C1=C(C)NC2=C(C(=O)CCC2)C1c1ccco1 (stereo not drawn) [PT-153]
F
CC1=C(C(=O)OCc2ccccc2)C(c2cccc3ccccc23)n2nnnc2N1C (stereo not drawn) [PT-195]
T
CC1=C(C(=O)OCc2ccccc2)C(c2occc2-c2ccc(F)cc2)n2nnnc2N1 (stereo not drawn) [PT-396]
T
CCOC(=O)C1=C(C)Nc2[nH]nc(C)c2C1c1cccc2ccccc12 (stereo not drawn) [PT-074]
T
CCOC(=O)C1=C(C)NC(C)=C(C(=O)OCC)C1c1ccc(CC)s1 [PT-113]
T
CC1=C(C(=O)OCc2ccccc2)C(c2sccc2-c2ccc(F)cc2)n2nnnc2N1 (stereo not drawn) [PT-397]
F
CCOC(=O)C1=C(C)Nc2nc(C#N)c(C#N)n2C1c1cccc2ccccc12 (stereo not drawn) [PT-194]
T
CC1=C(C(=O)OCc2ccccc2)C(c2nccs2)n2nccc2N1 (stereo not drawn) [PT-363]
F
CCOC(=O)C1=C(C)Nc2[nH]ncc2C1c1ccccc1Br (stereo not drawn) [PT-448]
T
CC1=C(C(=O)O[C@@H](C)c2ccccc2)C(c2cc3ccccc3o2)n2nnnc2N1 (stereo partly drawn) [PT-059]
T

###

The reader will find reported hERG Patch Clamp hERG % blk (10 μM test cmpd) values listed item by item below.
- Measured On: hERG potassium channel (Homo sapiens)
- Sequence (Q12809 whole entry): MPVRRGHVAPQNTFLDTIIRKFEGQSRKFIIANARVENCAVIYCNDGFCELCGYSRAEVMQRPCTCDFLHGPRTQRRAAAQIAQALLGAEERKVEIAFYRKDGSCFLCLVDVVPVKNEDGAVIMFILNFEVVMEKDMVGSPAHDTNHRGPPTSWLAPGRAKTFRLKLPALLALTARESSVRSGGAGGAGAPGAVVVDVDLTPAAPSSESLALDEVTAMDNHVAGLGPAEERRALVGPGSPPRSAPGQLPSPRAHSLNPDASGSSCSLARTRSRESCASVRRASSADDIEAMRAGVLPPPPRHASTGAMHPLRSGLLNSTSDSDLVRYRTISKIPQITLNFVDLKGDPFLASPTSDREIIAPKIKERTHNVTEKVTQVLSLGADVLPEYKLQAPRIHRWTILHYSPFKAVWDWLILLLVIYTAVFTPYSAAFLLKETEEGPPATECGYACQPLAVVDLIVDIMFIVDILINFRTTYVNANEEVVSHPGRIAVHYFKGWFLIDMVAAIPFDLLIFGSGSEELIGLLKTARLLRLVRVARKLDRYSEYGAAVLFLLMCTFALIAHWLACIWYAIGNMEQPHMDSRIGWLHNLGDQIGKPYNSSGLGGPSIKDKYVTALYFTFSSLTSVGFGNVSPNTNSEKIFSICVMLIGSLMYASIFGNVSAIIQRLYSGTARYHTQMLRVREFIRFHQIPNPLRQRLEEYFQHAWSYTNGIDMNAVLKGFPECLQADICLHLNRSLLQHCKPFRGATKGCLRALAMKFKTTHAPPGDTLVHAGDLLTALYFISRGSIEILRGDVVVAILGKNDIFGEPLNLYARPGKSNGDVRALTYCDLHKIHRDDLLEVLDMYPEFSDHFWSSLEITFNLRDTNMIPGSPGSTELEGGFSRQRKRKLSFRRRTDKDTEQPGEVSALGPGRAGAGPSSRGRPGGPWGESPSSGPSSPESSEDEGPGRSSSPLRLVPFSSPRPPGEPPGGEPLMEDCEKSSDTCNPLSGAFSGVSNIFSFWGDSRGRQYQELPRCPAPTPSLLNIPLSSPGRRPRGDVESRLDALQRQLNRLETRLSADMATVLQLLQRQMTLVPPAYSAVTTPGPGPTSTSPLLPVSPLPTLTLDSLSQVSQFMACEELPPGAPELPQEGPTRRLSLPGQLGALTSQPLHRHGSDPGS
- Protocol Text: hERG screening assay (PatchXpress patch clamp, CHO cells)
- Condition Context: 10 μM test cmpd
Value Type: hERG Patch Clamp hERG % blk (10 μM test cmpd) (%)

CC1=C(C(=O)OCc2ccccc2)C(c2cccc3ccccc23)n2nnnc2N1 (stereo not drawn)
64.5
CC1=C(C(=O)OCc2ccccc2)C(c2nccs2)c2cn[nH]c2N1 (stereo not drawn)
25
CCOC(=O)C1=C(C)Nc2nccn2C1c1ccc2ccccc2c1 (stereo not drawn)
57.5
CC1=C(C(=O)OC(C)Cc2ccccc2)C(c2cccc3ccccc23)n2nnnc2N1 (stereo not drawn)
37.5
CCOC(=O)C1=C(C)N(C)C(C)=C(C(=O)OCC)C1c1cccc2ccccc12
68
CC1=C(C(=O)N2CCC(c3ccccc3)CC2)C(c2ccsc2)C2=C(CCCC2=O)N1 (stereo not drawn)
53.5
CCOC(=O)C1=C(C)Nc2nnnn2C1c1cccc(Oc2ccccc2)c1 (stereo not drawn)
55
CCOC(=O)C1=C(C)Nc2nnnn2C1c1ccc2ccccc2c1 (stereo not drawn)
33.5
CCOC(=O)C1=C(C)Nc2nnnn2C1c1csc2ccccc12 (stereo not drawn)
23.5

###

- Measured On: UniProt:Q12809
- Protocol Text: hERG screening assay (PatchXpress patch clamp, CHO cells)
- Condition Context: 1 μM test cmpd
# Lookup of reported hERG Patch Clamp hERG % blk (1 μM test cmpd) keyed by entry
Value Type: hERG Patch Clamp hERG % blk (1 μM test cmpd) (%)

CCOC(=O)C1=C(C)NC(C)=C(C(=O)OCC)C1c1cc2ccccc2s1
27.5
CC1=C(C(=O)OCc2ccccc2)C(c2c3ccccc3cc3ccccc23)n2nnnc2N1 (stereo not shown)
10
CC1=C(C(=O)OC(C)C)C(c2cccc3ccccc23)C(C(=O)OC(C)C)=C(C)N1
10
CC1=C(C(=O)OC(c2ccccc2)C2CC2)C(c2cccc3ccccc23)n2nnnc2N1 (stereo not shown)
11.5
CCOC(=O)C1=C(C)Nc2nnnn2C1c1ccc2ccccc2c1 (stereo not shown)
10
CCOC(=O)C1=C(CC)Nc2nnnn2C1c1cccc2ccccc12 (stereo not shown)
12.5
CCOC(=O)C1=C(C)Nc2nnnn2C1c1ccccc1-c1cccc(-c2nnn[nH]2)c1 (stereo not shown)
10
N#CC1=C(N)NC2=C(C(=O)CCC2)C1c1ccc(Br)cc1 (stereo not shown)
10
CC1=C(C(=O)OCc2ccccc2)C(c2c(Br)sc3ccccc23)n2nnnc2N1 (stereo not shown)
10
CC1=C(C(=O)O[C@@H](C)c2ccccc2)C(c2cc3ccccc3o2)n2nnnc2N1 (stereo partly shown)
10
N#CC1=C(N)OC2=C(C(=O)CC(c3ccccc3)C2)C1c1ccco1 (stereo not shown)
18
COC(=O)C1=C(C)Nc2nnnn2C1c1cccc2ccccc12 (stereo not shown)
10.5
CCOC(=O)C1=C(C)NC2=C(C(=O)CCC2)C1c1cccc2ncccc12 (stereo not shown)
13.5
CCOC(=O)C1=C(C)Nc2nnnn2C1c1cccc(Oc2ccccc2)c1 (stereo not shown)
11
CC1=C(C(=O)OCc2ccccc2)C(c2ccccc2N2CCCCC2)n2nnnc2N1 (stereo not shown)
10
CC1=C(C(=O)NCc2ccccc2)C(c2ccc3ccccc3c2)n2nnnc2N1 (stereo not shown)
14
CC1=C(C(=O)N2CCN(c3ccccc3)CC2)C(c2ccc3ccccc3c2)C2=C(CCCC2=O)N1 (stereo not shown)
30.5
COc1cc(Cl)ccc1COC(=O)C1=C(C)Nc2nnnn2C1c1c(C)cccc1C (stereo not shown)
10
CCOC(=O)C1=C(C)Nc2[nH]ncc2C1c1ccccc1Br (stereo not shown)
10
